Target under test: UniProt P28335
Assay method text: Human 5-HT2C functional high throughput screening assay in CHO-K1 cells (calcium flux)
Format: cell-based
Parameters: expressed in transfected cells; host or cells: CHO-K1 cells
Test settings: EC50, 5-HT2C agonist activity; CHO-K1 cells; calcium flux
Description: (iii) Human 5-HT2C and 5-HT2B Functional High Throughput Screening Assays in CHO-K1 Cells […] After incubation, the cell plates were transferred to FLIPR™ (MDS) and their fluorescence measurements were read at an excitation wavelength of 480 nm and an emission wavelength of 530 nm at 25° C. The baseline fluorescence was measured for the first 10 seconds and then 15 μL of 4× concentration of serotonin/test compound was added to the cells. […]
Each item that follows carries a reported pEC50.
Convention used: pEC50 is expressed as -log10 of the molar concentration.

Recorded results for 4 molecules are shown here.
INSERT INTO measurements (molecule, measured_endpoint, readout_value) VALUES
  ('c1cncc(-c2cccc3c2OCC[C@H]2CNC[C@H]32)c1 (relative stereo)', 'pEC50', 8.00),
  ('O=C1NC[C@@H]2CNC[C@H]2c2ccc(F)cc21 (relative stereo)', 'pEC50', 8.22),
  ('CN1C[C@@H]2CNC(=O)c3cc(F)cc(F)c3[C@H]2C1', 'pEC50', 8.10),
  ('CN1C[C@@H]2CNC(=O)c3cc(OCC4CC4)ccc3[C@H]2C1', 'pEC50', 8.00);

Request the reported pEC50 associated with CN1C[C@@H]2CNC(=O)c3cc(Cl)ccc3[C@H]2C1
8.00

----------
Each item that follows carries a reported Emax.
Target under test: 5HT2B receptors (Homo sapiens)
Construct: expressed in transfected cells; host or cells: CHO-K1 cells
Assay method text: Human 5-HT2B functional high throughput screening assay in CHO-K1 cells (calcium flux)
Assay type: cell-based
Test settings: CHO-K1
Field format: number, assumed %, no unit text.

INSERT INTO assay_data (compound, unit_tag, readout_value) VALUES
  ('O=S(=O)(c1ccccc1Cl)N1Cc2cccnc2[C@@H]2CNC[C@H]2C1 (relative stereo)', '%', 75),
  ('Clc1cccc2c1OCC[C@H]1CNC[C@H]21 (relative stereo)', '%', 70),
  ('COc1ccc2c(c1)[C@H]1CNC[C@@H]1CCC2 (relative stereo)', '%', 100),
  ('Cc1cc2c(cc1F)C(=O)NC[C@@H]1CNC[C@H]21 (relative stereo)', '%', 90),
  ('c1ccc2c(c1)OCC[C@@H]1CNC[C@@H]21', '%', 30),
  ('Clc1cccc2c1OCC[C@H]1CNC[C@@H]21 (relative stereo)', '%', 40),
  ('COc1cccc2c1[C@H]1CNC[C@@H]1CCO2 (relative stereo)', '%', 20),
  ('CN1C[C@@H]2CCCc3ccccc3[C@@H]2C1 (relative stereo)', '%', 50),
  ('COc1cccc2c1OCC[C@H]1CNC[C@H]21 (relative stereo)', '%', 25),
  ('CN1C[C@@H]2CCOc3ccc(Cl)cc3[C@H]2C1', '%', 70);

Next item in the queue.
Request the reported Emax associated with Cc1ccc2c(c1)OCC[C@H]1CNC[C@H]21 (relative stereo)
70

----------
Target under test: 5HT2C receptors (Homo sapiens, UniProt P28335)
Sequence (P28335 33-458): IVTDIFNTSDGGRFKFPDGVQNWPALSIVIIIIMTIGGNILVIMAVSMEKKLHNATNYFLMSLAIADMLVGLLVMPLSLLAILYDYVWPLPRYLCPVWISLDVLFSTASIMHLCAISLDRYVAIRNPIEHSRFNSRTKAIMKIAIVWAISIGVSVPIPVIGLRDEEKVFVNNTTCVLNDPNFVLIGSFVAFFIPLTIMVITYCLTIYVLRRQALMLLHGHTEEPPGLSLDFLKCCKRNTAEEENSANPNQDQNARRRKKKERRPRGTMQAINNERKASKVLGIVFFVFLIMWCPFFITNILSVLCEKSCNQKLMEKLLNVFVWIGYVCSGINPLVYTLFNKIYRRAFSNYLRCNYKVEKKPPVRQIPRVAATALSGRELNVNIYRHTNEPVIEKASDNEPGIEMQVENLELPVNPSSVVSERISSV
Assay method text: Human 5-HT2C functional high throughput screening assay in CHO-K1 cells (calcium flux)
Assay type: cell-based
Set-up: expressed in transfected cells; host or cells: CHO-K1 cells
Test settings: CHO-K1; 5-HT2C; maximum functional response as percentage relative to the effect of serotonin; read-out: Emax
Measured endpoint: Emax

INSERT INTO measurements (molecule, readout_value) VALUES
  ('CN1C[C@@H]2CNC(=O)c3cc(OCc4cccc(F)c4)ccc3[C@H]2C1', '> 120%'),
  ('CN1C[C@H]2CNC(=O)c3cc(-c4ccc(F)cc4)ccc3[C@@H]2C1 (relative stereo) [Example 75]', '> 120%'),
  ('CN1C[C@H]2CNC(=O)c3cc(-c4ccccc4F)ccc3[C@@H]2C1 (relative stereo)', '> 120%'),
  ('CN1C[C@H]2CNC(=O)c3cc(-c4cccc(F)c4)ccc3[C@@H]2C1 (relative stereo)', '> 120%'),
  ('CC(O)c1cccc(-c2ccc3c(c2)C(=O)N(C)C[C@@H]2CN(C)C[C@@H]32)c1 (relative stereo)', '> 120%'),
  ('CN1C[C@@H]2CNC(=O)c3cc(-c4ccc(F)cc4)ccc3[C@H]2C1', '> 120%'),
  ('CN1C[C@@H]2CNC(=O)c3cc(OCc4cc(F)cc(F)c4)ccc3[C@H]2C1', '> 120%'),
  ('O=C1C[C@@H]2CN(Cc3ccccc3)C[C@H]2c2ccccc2N1 (relative stereo)', '> 120%');

Request the reported Emax associated with O=C1NC[C@@H]2CNC[C@H]2c2ccc(OCc3c(F)cccc3F)cc21 (relative stereo)
> 120%

Request the reported Emax associated with CN1C[C@@H]2CNC(=O)c3cc(OCc4ccc(F)c(F)c4)ccc3[C@H]2C1
> 120%

----------
Target under test: 5HT2B receptors (Homo sapiens)
Construct: expressed in transfected cells; host or cells: CHO-K1 cells
Assay method text: Human 5-HT2B functional high throughput screening assay in CHO-K1 cells (calcium flux)
Type: cell-based
Test settings: 5-HT2B agonist activity; CHO-K1 cells; calcium flux; read-out: EC50
Each item that follows carries a reported EC50.

Recorded results for 4 molecules are shown here.
INSERT INTO results (molecule, target_under_test, readout_value) VALUES
  ('CC(O)c1cccc(-c2ccc3c(c2)C(=O)NC[C@@H]2CN(C)C[C@@H]32)c1 (relative stereo)', '5HT2B receptors (Homo sapiens)', '> 10 µM'),
  ('CS(=O)(=O)c1cccc(-c2cccc3c2OCC[C@H]2CNC[C@H]32)c1 (relative stereo)', '5HT2B receptors (Homo sapiens)', '> 10 µM'),
  ('CN1C[C@@H]2CNC(=O)c3cc(-c4cccc(S(C)(=O)=O)c4)ccc3[C@H]2C1', '5HT2B receptors (Homo sapiens)', '> 10 µM'),
  ('CN1C[C@H]2CNC(=O)c3cc(-c4cccc(OC(F)(F)F)c4)ccc3[C@@H]2C1 (relative stereo)', '5HT2B receptors (Homo sapiens)', '> 10 µM');

Request the reported EC50 associated with O=C1NC[C@@H]2CN(Cc3ccccc3)C[C@H]2c2c1sc1ccccc21 (relative stereo)
4 µM

Request the reported EC50 associated with Cc1ccc(-c2ccc3c(c2)C(=O)NC[C@@H]2CN(C)C[C@@H]32)cc1 (relative stereo)
> 10 µM

Request the reported EC50 associated with CN1C[C@H]2CNC(=O)c3cc(N4CCCCC4)ccc3[C@@H]2C1 (relative stereo)
> 10 µM

----------
Each item that follows carries a reported EC50.
Target under test: 5HT2B receptors (Homo sapiens, UniProt P41595)
Construct: expressed in transfected cells; host or cells: CHO-K1 cells
Sequence (P41595 whole entry): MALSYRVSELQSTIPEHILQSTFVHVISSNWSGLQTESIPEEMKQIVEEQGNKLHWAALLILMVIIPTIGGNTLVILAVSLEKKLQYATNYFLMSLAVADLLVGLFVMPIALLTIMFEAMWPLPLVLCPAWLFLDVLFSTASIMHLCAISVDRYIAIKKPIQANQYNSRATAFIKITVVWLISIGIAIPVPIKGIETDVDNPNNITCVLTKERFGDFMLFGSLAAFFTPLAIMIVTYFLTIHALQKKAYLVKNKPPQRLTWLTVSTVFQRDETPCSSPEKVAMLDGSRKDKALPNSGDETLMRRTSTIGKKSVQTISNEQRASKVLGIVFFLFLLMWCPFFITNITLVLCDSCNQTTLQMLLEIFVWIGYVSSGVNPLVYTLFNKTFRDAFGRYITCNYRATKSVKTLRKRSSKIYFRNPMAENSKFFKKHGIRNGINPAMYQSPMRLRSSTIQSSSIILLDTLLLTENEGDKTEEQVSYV
Assay method text: Human 5-HT2B functional high throughput screening assay in CHO-K1 cells (calcium flux)
Format: cell-based
Test settings: EC50, 5-HT2B agonist activity; CHO-K1 cells; calcium flux
Field format: number, assumed µM, no unit text.

Recorded results for 5 compounds are shown here.
INSERT INTO measurements (compound, target_under_test, readout_value) VALUES
  ('CN1C[C@H]2CCN(C)c3ccc(Cl)cc3[C@@H]2C1 (relative stereo) [Example 395]', '5HT2B receptors (Homo sapiens, UniProt P41595)', 0.08),
  ('Fc1cc(F)c2c(c1)[C@H]1CNC[C@@H]1CCO2 (relative stereo) [Example 283]', '5HT2B receptors (Homo sapiens, UniProt P41595)', 0.06),
  ('COc1ccc2c(c1)[C@H]1CNC[C@@H]1CCC2 (relative stereo) [Example 263]', '5HT2B receptors (Homo sapiens, UniProt P41595)', 0.02),
  ('O=C1NC[C@@H]2CNC[C@H]2c2cccc(F)c21 (single isomer, unassigned) [Example 60]', '5HT2B receptors (Homo sapiens, UniProt P41595)', 0.9),
  ('O=S(=O)(c1ccc(Br)s1)N1Cc2cccnc2[C@@H]2CNC[C@H]2C1 (relative stereo) [Example 360]', '5HT2B receptors (Homo sapiens, UniProt P41595)', 0.3);

API: value(readout=EC50, system=5HT2B receptors (Homo sapiens, UniProt P41595)) for record CN1CC[C@@H]2CNC[C@H]2c2cccc(Cl)c21 (relative stereo) [Example 375]
0.01
